# target of assay: T1, HA-GCN4 hAPRIL (amino acid residues 105-250) (human, UniProt O75888 105-250)
# T1 construct: Bought (R&D Systems); also called HA-tagged GCN4 human APRIL; HA-GCN4-huAPRIL; not shown: N-terminal HA tag; GCN4 isoleucine zipper oligomerization domain
# T1 sequence: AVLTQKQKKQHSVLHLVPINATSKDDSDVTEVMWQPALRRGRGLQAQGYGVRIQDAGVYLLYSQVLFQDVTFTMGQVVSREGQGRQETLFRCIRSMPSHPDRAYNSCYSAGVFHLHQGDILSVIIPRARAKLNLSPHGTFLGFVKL
# assay name: blocking ELISA; blocked: human APRIL binding to TACI-Fc

binder | Relative Activity (normalised to 2419)
4540-033 (antibody, V domains shown) VH: QVQLVQSGAEVKKPGASVKVSCKASGYTFADYYINWVRQAPGQGLEWMGWIFPGSGSTYYAQKLQGRVTMTTDTSTSTAYMELRSLRSDDTAVYYCARGDSGRAMDYWGQGTLVTVSS VL: DIQMTQSPSSLSASVGDRVTITCQASQDINKYLAWYQHKPGKAPKLLIHYTSTLETGVPSRFSGSGSGTDFTFTISSLQPEDIATYYCLQYDNLLTFGGGTKVEIK | 1.26
2419-1306 (antibody, V domains shown) VH: QVQLVQSGAEVKKPGASVKVSCKASGYTFTDYTIHWVRQATGQGLEWMGWIYPLRGSINYAQKFQGRVTMTANKSISTVYMELSSLRSEDTAVYFCARHGAYYSNAFDYWGQGTLVTVSS VL: EIVMTQSPATLSVSPGERATLSCRASESVDNDGIRFLHWYQQKPGQAPRLLIYRASTRATGIPARFSGSGSRTEFTLTISSLQSEDFAVYYCQQSNKDPYTFGGGTKVEIK | 1.03
monoclonal antibody 4540 (antibody, V domains shown, mouse-derived) VH: QVQLQQSGPELVKPGASVKISCKASGYTFADYYINWVKQRPGQGLEWIGWIFPGSGSTYYNEKFKGKATLTVDKSSSTAYMLLSSLTSEDSAVYFCARGDSGRAMDYWGQGTSVTVSS VL: DIQMTQSPSSLSASLGGKVTITCKASQDINKYIAWYQHKPGKGPRLLIHYTSTLQSGIPSRFSGSGSGRDYSFSISNLEPEDNATYYCLQYDNLLTFGAGTKLELK | 1.45
